Measured values drawn from the supplement of paper PMC12636033 for this set.

Please provide measured PBM 8-mer E-score for the entries that follow.
system: muMax20 (Max(13-93) K31hArg/K57hArg, M65Nle); test: PBM 8-mer E-score (E-score (rank enrichment, -0.5 to 0.5)); higher = stronger preferential binding
Whole data set: some 33,000 sequences, median “E-score (rank enrichment, -0.5 to 0.5)” near -0.0068, cut for the highest 2% near 0.24. The full list was thinned out, with the highest values kept by preference.
Answers are plain numbers.

Sample answers from the record:
# Entry Sequence, Readout Name, Assay Result
rows = [
    ("GTTTTATA", "PBM 8-mer E-score", 0.261),
    ("ATTCATTG", "PBM 8-mer E-score", 0.148),
    ("AACGTGGC", "PBM 8-mer E-score", 0.0382),
    ("AACCTTCC", "PBM 8-mer E-score", 0.0123),
    ("CACGTGGG", "PBM 8-mer E-score", 0.447),
]

// for each sequence in input: emit PBM 8-mer E-score
1. ATACATTC
2. ATTCATTA
3. CGACAAGA
4. CCCGCCCC
5. AACCCGCC
6. AATGTGAA

Reply:
1: 0.244; 2: 0.177; 3: -0.0978; 4: 0.273; 5: -0.0715; 6: 0.211

----------
system: muMax20 (Max(13-93) K31hArg/K57hArg, M65Nle); test: PBM 8-mer E-score (E-score (rank enrichment, -0.5 to 0.5)); higher = stronger preferential binding
Whole data set: some 33,000 sequences, median “E-score (rank enrichment, -0.5 to 0.5)” near -0.0068, cut for the highest 2% near 0.24. Many of the other results were omitted from the sample, so the highest values are more common in it than they were.
Readout Name: PBM 8-mer E-score

List the reported PBM 8-mer E-score of each sequence below.
1. ATAATAAT
2. ACCTATAC

Reply:
1: 0.205; 2: 0.0268

Provide PBM 8-mer E-score values for the following items, in order.
1. ACATATAT
2. CCATATAA
3. AACACTCT
4. CGGCTACC
5. CCCAGTAG
6. GACGTGGC

Reply:
1. 0.323
2. 0.225
3. -0.00142
4. -0.274
5. -0.0372
6. -0.0512

Task item: Fill in: PBM 8-mer E-score on muMax20 (Max(13-93) K31hArg/K57hArg, M65Nle), entry AAATATAC
Reply: 0.209

----------
test system: muMax20 (Max(13-93) K31hArg/K57hArg, M65Nle); experiment: PBM 8-mer E-score (E-score (rank enrichment, -0.5 to 0.5)); higher = stronger preferential binding
Over roughly 33,000 sequences, “E-score (rank enrichment, -0.5 to 0.5)” has its median near -0.0068; the highest 2% begin near 0.24. The sample as a whole holds a higher share of the highest values than the screen did.
I would appreciate it if you labelled entries 1 (yes) when PBM 8-mer E-score is 0.08 or higher, otherwise 0 (no).

# Entry Sequence, Class Assignment
records = [
    ("CCTGCTGC", "0 (no)"),
    ("AGGTCTGA", "0 (no)"),
    ("AAGCTTAG", "0 (no)"),
    ("AACGCCAC", "0 (no)"),
    ("CGAGTACC", "0 (no)"),
]

Task item: Can ATAAACTA be said to have PBM 8-mer E-score at or above 0.08?
Reply: 1 (yes)

----------
system: muMax20 (Max(13-93) K31hArg/K57hArg, M65Nle); experiment: PBM 8-mer E-score (E-score (rank enrichment, -0.5 to 0.5)); higher = stronger preferential binding
In all, about 33,000 sequences were measured (“E-score (rank enrichment, -0.5 to 0.5)”: median about -0.0068, highest 2% from about 0.24 on). This is one part of a sample in which the highest values are shown more often than they occur.
Returns condition met if the recorded PBM 8-mer E-score is greater than or equal to 0.2, and condition not met otherwise.

// below: answered sequences
# Entry Sequence, Class Assignment
records = [
    ("CTTTAATA", "condition not met"),
    ("AATAATTA", "condition met"),
    ("AGTTGCAT", "condition met"),
]

Task item: Assess whether reported PBM 8-mer E-score for AATTGCCT sits at 0.2 or higher.
Reply: condition not met

Task item: I'd appreciate it if you could say whether ATCAGAGG has PBM 8-mer E-score at least equal to 0.2.
Reply: condition not met

----------
tested on: muMax20 (Max(13-93) K31hArg/K57hArg, M65Nle); assay: PBM 8-mer E-score (E-score (rank enrichment, -0.5 to 0.5)); higher = stronger preferential binding
The full ranking holds about 33,000 sequences; the median of “E-score (rank enrichment, -0.5 to 0.5)” is about -0.0068, and the highest 2% start at about 0.24. This is one part of a sample in which the highest values are shown more often than they occur.
Assignment: determine reported PBM 8-mer E-score for the given sequences.
Numbers only.

Sample answers from the record:
# Entry Sequence, Readout Name, Assay Result
rows = [
    ("AAATGTGT", "PBM 8-mer E-score", 0.175),
    ("AAATGTAT", "PBM 8-mer E-score", 0.241),
    ("AAAGCATT", "PBM 8-mer E-score", 0.1),
    ("AAAGCTGG", "PBM 8-mer E-score", 0.0179),
    ("CCATGTTC", "PBM 8-mer E-score", -0.0553),
]

Quick one: give me PBM 8-mer E-score for each item below, same order please.
1. CGTCGGAG
2. GAATGTAC
3. GTACCACA
4. CTGAGTTA
5. CAAGCATG

Reply:
-0.148
-0.0364
0.115
-0.0809
0.134

Required: PBM 8-mer E-score, one value per sequence below.
1. AAAGCATG
2. AAATGTAG
3. AAATGTGG
4. ACCTATGA

Reply:
[0.25, 0.0928, 0.139, -0.136]

----------
test system: muMax20 (Max(13-93) K31hArg/K57hArg, M65Nle); experiment: PBM 8-mer E-score (E-score (rank enrichment, -0.5 to 0.5)); higher = stronger preferential binding
In all, about 33,000 sequences were measured (“E-score (rank enrichment, -0.5 to 0.5)”: median about -0.0068, highest 2% from about 0.24 on). What follows is part of a selection rich in the highest values, with near analogues and random picks from the rest.
Readout Name: PBM 8-mer E-score
Numbers only.

// worked examples, PBM 8-mer E-score included
# Entry Sequence, Tested Target, Readout Name, Assay Result
rows = [
    ("GCGTGTTA", "muMax20 (Max(13-93) K31hArg/K57hArg, M65Nle)", "PBM 8-mer E-score", 0.195),
    ("GAATATAA", "muMax20 (Max(13-93) K31hArg/K57hArg, M65Nle)", "PBM 8-mer E-score", 0.264),
    ("CAGCGCAC", "muMax20 (Max(13-93) K31hArg/K57hArg, M65Nle)", "PBM 8-mer E-score", -0.171),
    ("ATGCCCGG", "muMax20 (Max(13-93) K31hArg/K57hArg, M65Nle)", "PBM 8-mer E-score", -0.241),
    ("AGATGCAG", "muMax20 (Max(13-93) K31hArg/K57hArg, M65Nle)", "PBM 8-mer E-score", -0.0831),
    ("GGTGTGTA", "muMax20 (Max(13-93) K31hArg/K57hArg, M65Nle)", "PBM 8-mer E-score", 0.159),
    ("ATATATAT", "muMax20 (Max(13-93) K31hArg/K57hArg, M65Nle)", "PBM 8-mer E-score", 0.155),
    ("GTTAGTTA", "muMax20 (Max(13-93) K31hArg/K57hArg, M65Nle)", "PBM 8-mer E-score", 0.251),
    ("AGTGTCCC", "muMax20 (Max(13-93) K31hArg/K57hArg, M65Nle)", "PBM 8-mer E-score", -0.0112),
    ("GATGTTTA", "muMax20 (Max(13-93) K31hArg/K57hArg, M65Nle)", "PBM 8-mer E-score", 0.0668),
]

Would you mind giving PBM 8-mer E-score for every sequence in the list below?
1. GCAATAAC
2. CGTACCCC

Reply:
1. 0.138
2. 0.134

Report PBM 8-mer E-score for every entry below.
1. AGAGCATA
2. TATGTGCA
3. ATCTACAA
4. CTGTATAA
5. GTGTATAA

Reply:
0.0465
0.175
0.126
0.191
0.162

Below are some sequences; for each one, tell me its PBM 8-mer E-score.
1. CACGAGCA
2. CTTGTATC
3. CTGTAGAA

Reply:
-0.159
0.0905
0.031

Parameter requested: PBM 8-mer E-score. Apply to each item below.
1. CGTGTGTA
2. TTATATAA
3. AACGGCCT
4. GGAACGAC

Reply:
0.28
0.274
0.269
-0.0812

Please give PBM 8-mer E-score for each item listed below.
1. AACGGCCA
2. CCGTGTTA
3. ATGTAGAA
4. TCCCCTCA
5. ATTAGTTA
6. CTTAGTTA
7. TGGCAAAA

Reply:
[-0.0219, 0.103, 0.264, 0.14, 0.173, 0.0136, -0.0471]

Would you be so kind as to report PBM 8-mer E-score for each listed record?
1. ACGTGTTG
2. AACGGCCC
3. CATGTTTA
4. CCGTGTTC
5. ACTGTCTA
6. CATGTGCA
7. GATAAACA
8. ATGTGTTG

Reply:
0.299
-0.263
0.249
0.00613
0.0515
0.292
0.136
0.225

Please state, for each entry, its recorded PBM 8-mer E-score.
1. GACGTAAC
2. TATAAACA

Reply:
1: 0.0633; 2: 0.234
